- target-entity: human QRFPR (hQRFPR) (Homo sapiens)
- Construct: expressed in transfected cells; host or cells: CHO cells, stably transfected with hQRFPR (G418 selection) and Gα16 (hygromycin B selection)
- method-description: Calcium mobilization assay, agonist mode ([Ca2+]i in Gα16-hQRFPR-transfected CHO cells)
- Assay type: cell-based
- condition-description: [Ca2+]i mobilization in Gα16-hQRFPR-transfected CHO cells; mean of at least three independent experiments performed in triplicate; read-out: EC50
Non-standard residues stand in square brackets, D forms with d. Residues, ends and D or L forms follow the SMILES beside them. *: point of attachment. Phe(4-NO2) = N[C@@H](Cc1ccc([N+](=O)[O-])cc1)C(=O)O; 2Nal = N[C@@H](Cc1ccc2ccccc2c1)C(=O)O; X1 = O=C(C(c1cccnc1)N1CCNCC1)*
metric-name: EC50 (µM)
Express the result in µM but write the number alone.

N=C(N)NCCC[C@H](NC(=O)[C@H](Cc1ccc2ccccc2c1)NC(=O)[C@H](CO)NC(=O)[C@H](Cc1ccccc1)NC(=O)CNC(=O)CN)C(=O)N[C@@H](Cc1ccccc1)C(N)=O [Compound 6, [2Nal^24]26RFa(20–26)] (H-GGFS[2Nal]RF-NH2) ... 15.3
N=C(N)NCCC[C@H](NC(=O)[C@H](Cc1ccccc1)NC(=O)[C@H](CO)NC(=O)[C@H](Cc1ccc([N+](=O)[O-])cc1)NC(=O)CNC(=O)CN)C(=O)N[C@@H](Cc1ccccc1)C(N)=O [Compound 17, [pNO2Phe^22]26RFa(20–26)] (H-GG[Phe(4-NO2)]SFRF-NH2) ... 2.13
N=C(N)NCCC[C@H](NC(=O)[C@H](Cc1ccccc1)NC(=O)[C@H](CO)NC(=O)C(c1cccnc1)N1CCNCC1)C(=O)N[C@@H](Cc1ccccc1)C(N)=O (some centres unmarked) [Compound 63, [Cmpi(3-Pyg)^22]26RFa(22–26)] (X1-SFRF-NH2) ... 4.99

Now take the following compound into account.
Sample N=C(N)NCCC[C@H](NC(=O)[C@H](Cc1ccccc1)NC(=O)[C@H](CO)NC(=O)[C@H](Cc1ccc2ccccc2c1)NC(=O)CNC(=O)CN)C(=O)N[C@@H](Cc1ccccc1)C(N)=O [Compound 5, [2Nal^22]26RFa(20–26)] (H-GG[2Nal]SFRF-NH2) ; EC50 observed: 1.15

###

pEC50 values, listed per item
- target-entity: human QRFPR (hQRFPR) (Homo sapiens)
- Construct: expressed in transfected cells; host or cells: CHO cells, stably transfected with hQRFPR (G418 selection) and Gα16 (hygromycin B selection)
- method-description: Calcium mobilization assay, agonist mode ([Ca2+]i in Gα16-hQRFPR-transfected CHO cells)
- Assay type: cell-based
- condition-description: [Ca2+]i mobilization in Gα16-hQRFPR-transfected CHO cells; mean of at least three independent experiments performed in triplicate; read-out: EC50
Non-standard residues stand in square brackets, D forms with d. Residues, ends and D or L forms follow the SMILES beside them. Phe(4-NO2) = N[C@@H](Cc1ccc([N+](=O)[O-])cc1)C(=O)O; Phe(4-tBu) = CC(C)(C)c1ccc(C[C@H](N)C(=O)O)cc1; Tic = O=C(O)[C@@H]1Cc2ccccc2CN1
Bear in mind: pEC50 is minus log10 of a mol/L concentration; give just that figure.

N=C(N)NCCC[C@H](NC(=O)[C@H](Cc1ccccc1)NC(=O)[C@H](CO)NC(=O)[C@@H]1Cc2ccccc2CN1C(=O)CNC(=O)CN)C(=O)N[C@@H](Cc1ccccc1)C(N)=O [Compound 28, [Tic^22]26RFa(20–26)] (H-GG[Tic]SFRF-NH2) ... 6.49
N=C(N)NCCC[C@H](NC(=O)[C@H](Cc1ccccc1)NC(=O)[C@H](CO)NC(=O)[C@H](Cc1ccccc1)NC(=O)CNC(=O)CN)C(=O)N[C@@H](Cc1ccc([N+](=O)[O-])cc1)C(N)=O [Compound 19, [pNO2Phe^26]26RFa(20–26)] (H-GGFSFR[Phe(4-NO2)]-NH2) ... 6.31

Reported pEC50 (human QRFPR (hQRFPR) (Homo sapiens)) for entry CC(C)(C)c1ccc(C[C@H](NC(=O)[C@H](CCCNC(=N)N)NC(=O)[C@H](Cc2ccccc2)NC(=O)[C@H](CO)NC(=O)[C@H](Cc2ccccc2)NC(=O)CNC(=O)CN)C(N)=O)cc1 [Compound 13, [ptBuPhe^26]26RFa(20–26)] (H-GGFSFR[Phe(4-tBu)]-NH2) is 5.98

###

- target-entity: human QRFPR (hQRFPR) (Homo sapiens, UniProt Q96P65)
- Construct: expressed in transfected cells; host or cells: CHO cells, stably transfected with hQRFPR (G418 selection) and Gα16 (hygromycin B selection)
- Sequence (Q96P65 whole entry): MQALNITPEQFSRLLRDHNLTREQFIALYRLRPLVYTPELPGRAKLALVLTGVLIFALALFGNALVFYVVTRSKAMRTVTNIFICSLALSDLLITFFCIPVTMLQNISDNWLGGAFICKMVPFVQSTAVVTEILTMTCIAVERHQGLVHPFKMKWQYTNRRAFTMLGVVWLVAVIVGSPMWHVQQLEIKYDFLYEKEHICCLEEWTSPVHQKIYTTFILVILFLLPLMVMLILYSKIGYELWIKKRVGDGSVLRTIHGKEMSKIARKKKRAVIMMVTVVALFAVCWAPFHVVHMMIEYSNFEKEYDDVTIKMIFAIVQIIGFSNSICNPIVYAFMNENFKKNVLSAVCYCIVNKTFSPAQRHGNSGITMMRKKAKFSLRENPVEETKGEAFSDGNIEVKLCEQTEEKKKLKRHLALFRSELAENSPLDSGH
- method-description: Calcium mobilization assay, agonist mode ([Ca2+]i in Gα16-hQRFPR-transfected CHO cells)
- Format: cell-based
- condition-description: [Ca2+]i mobilization in Gα16-hQRFPR-transfected CHO cells; mean of at least three independent experiments performed in triplicate; read-out: EC50
Non-standard residues stand in square brackets, D forms with d. Residues, ends and D or L forms follow the SMILES beside them. ξ: configuration not given here. Tic = O=C(O)[C@@H]1Cc2ccccc2CN1; ξPhg = NC(C(=O)O)c1ccccc1
Reported pEC50 values follow for various compounds
Friendly reminder that pEC50 comes from taking -log10 of the concentration in mol/L.

N=C(N)NCCC[C@H](NC(=O)[C@H](Cc1ccccc1)NC(=O)[C@H](CO)NC(=O)[C@H](Cc1ccccc1)NC(=O)CNC(=O)CN)C(=O)N1Cc2ccccc2C[C@H]1C(N)=O [Compound 30, [Tic^26]26RFa(20–26)] (H-GGFSFR[Tic]-NH2) ... 5.11

Next compound, pEC50 to be filled in.
The reported value for N=C(N)NCCC[C@H](NC(=O)[C@H](Cc1ccccc1)NC(=O)[C@H](CO)NC(=O)C(NC(=O)CNC(=O)CN)c1ccccc1)C(=O)N[C@@H](Cc1ccccc1)C(N)=O (stereo partly shown) [Compound 20, [Phg^22]26RFa(20–26)] (H-GG[ξPhg]SFRF-NH2) in terms of pEC50 is 5.30

###

- target-entity: human QRFPR (hQRFPR) (Homo sapiens, UniProt Q96P65)
- Construct: expressed in transfected cells; host or cells: CHO cells, stably transfected with hQRFPR (G418 selection) and Gα16 (hygromycin B selection)
- method-description: Calcium mobilization assay, agonist mode ([Ca2+]i in Gα16-hQRFPR-transfected CHO cells)
- Type: cell-based
- condition-description: [Ca2+]i mobilization in Gα16-hQRFPR-transfected CHO cells; mean of at least three independent experiments performed in triplicate; read-out: EC50
Positions of bridges follow the written chain, without caps; N, C: chain ends. Residues, ends and D or L forms follow the SMILES beside them. *: point of attachment. X1 = O=C(C(c1cccnc1)N1CCNCC1)*
metric-name: EC50

N=C(N)NCCC[C@H](NC(=O)[C@H](Cc1ccccc1)NC(=O)[C@H](CO)NC(=O)C(c1cccnc1)N1CCNCC1)C(=O)N[C@@H](Cc1ccccc1)C(N)=O (some centres unmarked) [Compound 64, [Cmpi(3-Pyg)^22]26RFa(22–26)] (X1-SFRF-NH2) ... > 10 µM

Let us examine a further case.
Briefly, EC50 measured for N=C(N)NCCC[C@@H]1NC(=O)[C@@H](NC(=O)[C@H](CO)NC(=O)[C@H](Cc2ccccc2)NC(=O)CNC(=O)CN)CSSC[C@@H](C(N)=O)NC1=O [Compound 48, [Cys^24,26]26RFa(20–26)] (H-GGFSCRC-NH2; disulfide 5-7) : > 10 µM

###

The entries below come with measured pEC50 values attached.
- target-entity: human QRFPR (hQRFPR) (Homo sapiens, UniProt Q96P65)
- Construct: expressed in transfected cells; host or cells: CHO cells, stably transfected with hQRFPR (G418 selection) and Gα16 (hygromycin B selection)
- method-description: Calcium mobilization assay, agonist mode ([Ca2+]i in Gα16-hQRFPR-transfected CHO cells)
- Format: cell-based
- condition-description: [Ca2+]i mobilization in Gα16-hQRFPR-transfected CHO cells; mean of at least three independent experiments performed in triplicate; read-out: EC50
- Method: Stably transfected hQRFPR CHO cells were obtained as previously described. The cells were maintained in F-12 nutrient mixture (Ham-F12) medium supplemented with 10% fetal bovine serum, 2 mM glutamine, and penicillin-streptomycin. […] Changes in intracellular Ca^2+ concentrations induced by 26RFa(20–26) analogs in CHO-Gα16-hQRFPR-transfected cells were measured on a benchtop scanning fluorometer Flexstation III (Molecular Devices, Sunnyvale, CA, USA) as previously described. […]
Starred links: 1 amine or outer side, 2 acyl side, 3 side chain; linkers in the order of their positions; H or OH if unused. Non-standard residues stand in square brackets, D forms with d. Residues, ends and D or L forms follow the SMILES beside them. *: point of attachment. Ahppa(3S,4S) = O=C(C[C@H](O)[C@H](Cc1ccccc1)N[*:1])[*:2]; Phe(4-Cl) = N[C@@H](Cc1ccc(Cl)cc1)C(=O)O; X3 = O=C(C(c1cccc(F)c1)N1CCNCC1)*; X6 = O=C(C(c1ccc(F)cc1)N1CCNCC1)*; X8 = O=C(C(c1ccccc1F)N1CCNCC1)*; 2Thi = N[C@@H](Cc1cccs1)C(=O)O
Note on pEC50: it is the negative log10 of concentration, concentration in mol/L.

Some entries whose results are on file:
N=C(N)NCCC[C@H](NC(=O)[C@H](Cc1ccccc1)NC(=O)[C@H](CO)NC(=O)C(c1ccc(F)cc1)N1CCNCC1)C(=O)N[C@@H](Cc1ccccc1)C(N)=O (stereo partly drawn) [Compound 52, [Cmpi(4-FPhg)^22]26RFa(22–26)] (X6-SFRF-NH2) ... 5.78
N=C(N)NCCC[C@H](NC(=O)[C@H](Cc1ccccc1)NC(=O)[C@H](CO)NC(=O)[C@H](Cc1ccc(Cl)cc1)NC(=O)CNC(=O)CN)C(=O)N[C@@H](Cc1ccccc1)C(N)=O [Compound 14, [Pcp^22]26RFa(20–26)] (H-GG[Phe(4-Cl)]SFRF-NH2) ... 5.30
N=C(N)NCCC[C@H](NC(=O)[C@H](Cc1ccccc1)NC(=O)[C@H](CO)NC(=O)C(c1cccc(F)c1)N1CCNCC1)C(=O)N[C@@H](Cc1ccccc1)C(N)=O (stereo partly drawn) [Compound 54, [Cmpi(3-FPhg)^22]26RFa(22–26)] (X3-SFRF-NH2) ... 5.57

Lab note: measured pEC50 of N=C(N)NCCC[C@H](NC(=O)[C@H](Cc1ccccc1)NC(=O)[C@H](CO)NC(=O)[C@H](Cc1cccs1)NC(=O)CNC(=O)CN)C(=O)N[C@@H](Cc1ccccc1)C(N)=O [Compound 2, [Thi^22]26RFa(20–26)] (H-GG[2Thi]SFRF-NH2) was 5.50

Per the records, this compound ( N=C(N)NCCC[C@H](NC(=O)[C@H](Cc1ccccc1)NC(=O)[C@H](CO)NC(=O)C(c1ccccc1F)N1CCNCC1)C(=O)N[C@@H](Cc1ccccc1)C(N)=O (stereo partly drawn) [Compound 55, [Cmpi(2-FPhg)^22]26RFa(22–26)] (X8-SFRF-NH2; N-terminus assumed) ) has pEC50 equal to 5.61

Record summary for N=C(N)NCCC[C@H](NC(=O)[C@H](Cc1ccccc1)NC(=O)[C@H](CO)NC(=O)C[C@H](O)[C@H](Cc1ccccc1)NC(=O)CNC(=O)CN)C(=O)N[C@@H](Cc1ccccc1)C(N)=O [Compound 34, [AHPPA^22]26RFa(20–26)] (H-GG[Ahppa(3S,4S)]SFRF-NH2) : reported pEC50 = 5.55
